Biological target: PotF/D–E39D–F88A (Escherichia coli, UniProt P31133, A182D/D247S/F276W/F88A/L348Q/S38T/S87Y)
Construct: without the N-terminal signal peptide
Sequence (P31133 27-370 S38T/S87Y/F88A/A182D/D247S/F276W/L348Q): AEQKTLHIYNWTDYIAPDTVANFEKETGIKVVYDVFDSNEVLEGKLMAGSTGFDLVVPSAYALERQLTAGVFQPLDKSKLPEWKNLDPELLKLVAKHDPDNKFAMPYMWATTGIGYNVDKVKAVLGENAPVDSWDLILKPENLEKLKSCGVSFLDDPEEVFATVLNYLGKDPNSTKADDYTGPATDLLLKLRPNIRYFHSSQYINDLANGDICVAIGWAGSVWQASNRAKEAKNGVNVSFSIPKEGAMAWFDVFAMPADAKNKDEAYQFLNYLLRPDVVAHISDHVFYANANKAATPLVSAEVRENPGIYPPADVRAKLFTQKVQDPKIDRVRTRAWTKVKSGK
Experiment: ITC, PotF/D–E39D–F88A
Settings: ITC, 293 K, 50 mM Tris pH 8, 300 mM NaCl, biological triplicates
Method: Ligands were always freshly prepared in the exact same buffer as was used for the size exclusion run. Samples were degassed, and temperature was equilibrated using a degassing station (TA Instruments). […] The heat quantity past injection was determined by integration of the measured peaks. Every protein–ligand combination was measured as biological triplicate. […] Reported errors are the errors between fits of the measured triplicates.
readout-name: pKd
Please note pKd is a logarithmic value: minus log10 of concentration in mol/L. Answer with that number alone.

Value of measured pKd for the entry NCCCCNCCCN [SPD, spermidine] : 5.02

----------
Target: PotF/D–E39D–Y87S–F88Y–S247D (Escherichia coli, UniProt P31133, A182D/F276W/F88Y/L348Q/S38T)
Construct: without the N-terminal signal peptide; made in house; host or cells: E. coli BL21 (DE3)
Sequence (P31133 27-370 S38T/F88Y/A182D/F276W/L348Q): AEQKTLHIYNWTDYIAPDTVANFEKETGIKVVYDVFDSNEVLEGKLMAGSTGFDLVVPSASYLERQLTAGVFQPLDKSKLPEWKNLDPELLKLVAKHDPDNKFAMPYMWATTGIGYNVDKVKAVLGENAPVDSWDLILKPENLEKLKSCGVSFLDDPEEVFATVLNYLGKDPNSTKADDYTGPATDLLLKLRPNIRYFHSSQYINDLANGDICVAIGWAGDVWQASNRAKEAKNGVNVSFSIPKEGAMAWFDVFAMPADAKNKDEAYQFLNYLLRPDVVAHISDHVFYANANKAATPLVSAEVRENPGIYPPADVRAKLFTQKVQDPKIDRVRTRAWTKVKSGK
Assay: ITC, PotF/D–E39D–Y87S–F88Y–S247D
Assay type: binding
Conditions: ITC, 293 K, 50 mM Tris pH 8, 300 mM NaCl, biological triplicates, read-out: KD
readout-name: pKd
Please note pKd is a logarithmic value: minus log10 of concentration in mol/L. Answer with that number alone.

Value of measured pKd for the entry NCCCCN : 4.11
